So I've got a bunch of compounds here, and I need their Henry solubility constant Hcp values.
Assay: Henry solubility constant Hcp at 298.15 K (mol/(m3 Pa))
Conditions: reference: Przyjazny et al. (1983)

[in] Give me measured Henry solubility constant Hcp, please, for this compound: CCCCS [1-butanethiol]
[out] 0.0022

[in] Give me measured Henry solubility constant Hcp, please, for this compound: CCCS [1-propanethiol]
[out] 0.0024

[in] Give me measured Henry solubility constant Hcp, please, for this compound: CCSSCC [diethyl disulfide]
[out] 0.0063

[in] Give me measured Henry solubility constant Hcp, please, for this compound: CCS [ethanethiol]
[out] 0.0028

[in] Give me measured Henry solubility constant Hcp, please, for this compound: Cc1cccs1 [2-methylthiophene]
[out] 0.0041

[in] Give me measured Henry solubility constant Hcp, please, for this compound: CC(C)SC(C)C [di-(2-propyl)-sulfide]
[out] 0.003

[in] Give me measured Henry solubility constant Hcp, please, for this compound: CSC [dimethyl sulfide]
[out] 0.0056

[in] Give me measured Henry solubility constant Hcp, please, for this compound: CCSCC [diethyl sulfide]
[out] 0.0054

[in] Give me measured Henry solubility constant Hcp, please, for this compound: CCCSCCC [dipropyl sulfide]
[out] 0.0033

[in] Give me measured Henry solubility constant Hcp, please, for this compound: CS [methanethiol]
[out] 0.0039

[in] Give me measured Henry solubility constant Hcp, please, for this compound: c1ccsc1 [thiophene]
[out] 0.0044
